- experiment: Hematology assays in cynomolgus monkeys (Example 45)
- Type: in vivo
- run-conditions: day 22; escalating dose regimen
Reported hemoglobin by item:
readout-type: hemoglobin (g/dL)

>>> assay_result("ISIS 416864: MOE gapmer, nucleobases 1275 to 1318 of SEQ ID NO: 1 (Table 8) (antisense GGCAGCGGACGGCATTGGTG; MOE gapmer, wing and gap sizes not given here)")
12.1
>>> assay_result("ISIS 417002: MOE gapmer, nucleobases 1275 to 1318 of SEQ ID NO: 1 (Table 8) (antisense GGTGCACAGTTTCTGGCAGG; MOE gapmer, wing and gap sizes not given here)")
12.1
>>> assay_result("ISIS 416838: MOE gapmer, nucleobases 1018 to 1042 of SEQ ID NO: 1 (Table 6) (antisense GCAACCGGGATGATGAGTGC; MOE gapmer, wing and gap sizes not given here)")
12.5

---

- experiment: Liver function, ALT, AST, bilirubin in cynomolgus monkeys (Example 46)
- Format: in vivo
- run-conditions: Day 55; plasma
Strand notation (5' to 3'): a small letter for the sugar, then the base; units joined by * are phosphorothioate-linked, units joined directly phosphodiester-linked; [ ] holds rarer units or linkages, { } end groups; capitals alone tell only the bases. e = 2'-O-(2-methoxyethyl) (MOE); [5mC] = 5-methylcytosine; d = 2'-deoxy (DNA)
readout-type: ALT

>>> assay_result("ISIS 445522: 5-8-5 or 6-8-6 MOE microwalk gapmer (Table 44) (antisense eG*e[5mC]*eA*e[5mC]*eA*dG*dT*dT*dT*d[5mC]*dT*dG*dG*e[5mC]*eA*eG*eG*e[5mC])")
"60 IU/L"
>>> assay_result("ISIS 449710: 3-8-3, 4-8-4, 2-10-2, 3-10-3 or 4-10-4 MOE microwalk gapmer (Table 46) (antisense e[5mC]*eA*e[5mC]*dA*dG*dT*dT*dT*d[5mC]*dT*dG*dG*d[5mC]*eA*eG*eG)")
"45 IU/L"
>>> assay_result("ISIS 449709: 3-8-3, 4-8-4, 2-10-2, 3-10-3 or 4-10-4 MOE microwalk gapmer (Table 46) (antisense eG*e[5mC]*eA*e[5mC]*dA*dG*dT*dT*dT*d[5mC]*dT*dG*dG*d[5mC]*eA*eG*eG*e[5mC])")
"102 IU/L"
>>> assay_result("ISIS 445531: 5-8-5 or 6-8-6 MOE microwalk gapmer (Table 44) (antisense eG*eG*e[5mC]*eA*eT*dT*dG*dG*dT*dG*d[5mC]*dA*d[5mC]*eA*eG*eT*eT*eT)")
"73 IU/L"
>>> assay_result("ISIS 416858: MOE gapmer, nucleobases 1275 to 1318 of SEQ ID NO: 1 (Table 8) (antisense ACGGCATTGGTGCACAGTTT; MOE gapmer, wing and gap sizes not given here)")
"58 IU/L"

---

Reported HCT by item:
- experiment: Hematology assays in cynomolgus monkeys (Example 46)
- Format: in vivo
- run-conditions: Day-5
Strand notation (5' to 3'): a small letter for the sugar, then the base; units joined by * are phosphorothioate-linked, units joined directly phosphodiester-linked; [ ] holds rarer units or linkages, { } end groups; capitals alone tell only the bases. e = 2'-O-(2-methoxyethyl) (MOE); [5mC] = 5-methylcytosine; d = 2'-deoxy (DNA)
readout-type: HCT (%)

>>> assay_result("ISIS 449708: 3-8-3, 4-8-4, 2-10-2, 3-10-3 or 4-10-4 MOE microwalk gapmer (Table 46) (antisense eA*e[5mC]*eA*dG*dT*dT*dT*d[5mC]*dT*dG*dG*e[5mC]*eA*eG)")
44
>>> assay_result("ISIS 416850: MOE gapmer, nucleobases 1275 to 1318 of SEQ ID NO: 1 (Table 8) (antisense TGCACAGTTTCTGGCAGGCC; MOE gapmer, wing and gap sizes not given here)")
44
>>> assay_result("ISIS 449709: 3-8-3, 4-8-4, 2-10-2, 3-10-3 or 4-10-4 MOE microwalk gapmer (Table 46) (antisense eG*e[5mC]*eA*e[5mC]*dA*dG*dT*dT*dT*d[5mC]*dT*dG*dG*d[5mC]*eA*eG*eG*e[5mC])")
42
>>> assay_result("ISIS 445522: 5-8-5 or 6-8-6 MOE microwalk gapmer (Table 44) (antisense eG*e[5mC]*eA*e[5mC]*eA*dG*dT*dT*dT*d[5mC]*dT*dG*dG*e[5mC]*eA*eG*eG*e[5mC])")
42
>>> assay_result("ISIS 445531: 5-8-5 or 6-8-6 MOE microwalk gapmer (Table 44) (antisense eG*eG*e[5mC]*eA*eT*dT*dG*dG*dT*dG*d[5mC]*dA*d[5mC]*eA*eG*eT*eT*eT)")
42
>>> assay_result("ISIS 416858: MOE gapmer, nucleobases 1275 to 1318 of SEQ ID NO: 1 (Table 8) (antisense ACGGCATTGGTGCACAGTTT; MOE gapmer, wing and gap sizes not given here)")
44
>>> assay_result("ISIS 449711: 3-8-3, 4-8-4, 2-10-2, 3-10-3 or 4-10-4 MOE microwalk gapmer (Table 46) (antisense eA*e[5mC]*dA*dG*dT*dT*dT*d[5mC]*dT*dG*dG*d[5mC]*eA*eG)")
41
>>> assay_result("ISIS 449707: 3-8-3, 4-8-4, 2-10-2, 3-10-3 or 4-10-4 MOE microwalk gapmer (Table 46) (antisense e[5mC]*eA*e[5mC]*eA*dG*dT*dT*dT*d[5mC]*dT*dG*dG*e[5mC]*eA*eG*eG)")
43
>>> assay_result("ISIS 449710: 3-8-3, 4-8-4, 2-10-2, 3-10-3 or 4-10-4 MOE microwalk gapmer (Table 46) (antisense e[5mC]*eA*e[5mC]*dA*dG*dT*dT*dT*d[5mC]*dT*dG*dG*d[5mC]*eA*eG*eG)")
44

---

- System: human Factor 11 mRNA
- experiment: Dose-dependent antisense inhibition of human Factor 11 in HepG2 cells, lipofectin 9.375-150 nM (Example 2)
- Type: cell-based
- run-conditions: 150 nM, ~16 h
Strand notation (5' to 3'): a small letter for the sugar, then the base; units joined by * are phosphorothioate-linked, units joined directly phosphodiester-linked; [ ] holds rarer units or linkages, { } end groups; capitals alone tell only the bases. e = 2'-O-(2-methoxyethyl) (MOE); [5mC] = 5-methylcytosine; d = 2'-deoxy (DNA)
readout-type: percent inhibition of Factor 11 at 150 nM (%)

>>> assay_result("412223 (antisense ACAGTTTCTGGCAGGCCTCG; 5-10-5 MOE gapmer, further chemistry not given here) [compound 412223]")
81
>>> assay_result("413481 (antisense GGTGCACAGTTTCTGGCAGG; 5-10-5 MOE gapmer, further chemistry not given here) [compound 413481]")
83
>>> assay_result("412206 (antisense e[5mC]*e[5mC]*eG*eT*eG*d[5mC]*dA*dT*d[5mC]*dT*dT*dT*d[5mC]*dT*dT*eG*eG*e[5mC]*eA*eT) [compound 412206]")
89

---

- experiment: Hematology assays in cynomolgus monkeys (Example 45)
- Type: in vivo
- run-conditions: day 22; escalating dose regimen
readout-type: WBC count (µL⁻¹)

>>> assay_result("ISIS 416864: MOE gapmer, nucleobases 1275 to 1318 of SEQ ID NO: 1 (Table 8) (antisense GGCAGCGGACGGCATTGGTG; MOE gapmer, wing and gap sizes not given here)")
10000
>>> assay_result("ISIS 416838: MOE gapmer, nucleobases 1018 to 1042 of SEQ ID NO: 1 (Table 6) (antisense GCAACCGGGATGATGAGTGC; MOE gapmer, wing and gap sizes not given here)")
11000
>>> assay_result("ISIS 416850: MOE gapmer, nucleobases 1275 to 1318 of SEQ ID NO: 1 (Table 8) (antisense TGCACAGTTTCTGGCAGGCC; MOE gapmer, wing and gap sizes not given here)")
10000

---

Reported WBC count by item:
- experiment: Hematology assays in cynomolgus monkeys (Example 46)
- Type: in vivo
- run-conditions: Day-14
Strand notation (5' to 3'): a small letter for the sugar, then the base; units joined by * are phosphorothioate-linked, units joined directly phosphodiester-linked; [ ] holds rarer units or linkages, { } end groups; capitals alone tell only the bases. e = 2'-O-(2-methoxyethyl) (MOE); [5mC] = 5-methylcytosine; d = 2'-deoxy (DNA)
readout-type: WBC count

>>> assay_result("ISIS 416858: MOE gapmer, nucleobases 1275 to 1318 of SEQ ID NO: 1 (Table 8) (antisense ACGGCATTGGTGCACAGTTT; MOE gapmer, wing and gap sizes not given here)")
"10000 µL⁻¹"
>>> assay_result("ISIS 445522: 5-8-5 or 6-8-6 MOE microwalk gapmer (Table 44) (antisense eG*e[5mC]*eA*e[5mC]*eA*dG*dT*dT*dT*d[5mC]*dT*dG*dG*e[5mC]*eA*eG*eG*e[5mC])")
"10000 µL⁻¹"
>>> assay_result("ISIS 449711: 3-8-3, 4-8-4, 2-10-2, 3-10-3 or 4-10-4 MOE microwalk gapmer (Table 46) (antisense eA*e[5mC]*dA*dG*dT*dT*dT*d[5mC]*dT*dG*dG*d[5mC]*eA*eG)")
"13000 µL⁻¹"
